biological target: CYP3A4 (Homo sapiens, UniProt P08684); experiment: Inhibition of CYP3A4 at 10 uM; type: ADME
Sequence (P08684 whole entry): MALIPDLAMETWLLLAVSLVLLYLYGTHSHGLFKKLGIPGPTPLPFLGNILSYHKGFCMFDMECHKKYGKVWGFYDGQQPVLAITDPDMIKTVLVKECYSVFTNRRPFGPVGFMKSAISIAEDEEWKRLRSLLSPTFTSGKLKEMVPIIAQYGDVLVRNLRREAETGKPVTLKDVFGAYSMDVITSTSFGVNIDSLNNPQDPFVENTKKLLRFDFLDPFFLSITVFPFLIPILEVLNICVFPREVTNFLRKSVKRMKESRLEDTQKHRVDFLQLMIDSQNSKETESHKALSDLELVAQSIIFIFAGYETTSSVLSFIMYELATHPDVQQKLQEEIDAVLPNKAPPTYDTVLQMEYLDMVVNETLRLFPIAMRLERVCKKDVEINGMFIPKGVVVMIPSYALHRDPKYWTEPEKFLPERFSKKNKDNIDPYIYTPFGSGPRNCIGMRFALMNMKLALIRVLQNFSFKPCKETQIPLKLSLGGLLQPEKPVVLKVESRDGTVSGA
READOUT LABEL: inhibition at 10 µM (%)

Cc1cc(C(N)=O)ccc1-n1c(CCC(=O)O)ccc1-c1ccc(-n2ccnc2C)s1    27
Cc1cc(C(N)=O)ccc1-n1c(CCC(=O)O)ccc1-c1ccc(-n2ccnc2C)cc1    31

A = Cc1cc(C(N)=O)ccc1-n1c(CCC(=O)O)ccc1-c1cc(-n2ccnc2C)cs1
B = Cc1cc(C(N)=O)ccc1-n1c(CCC(=O)O)ccc1-c1ccc(-n2ccnc2)s1
C = CCc1nccn1-c1ccc(-c2ccc(CCC(=O)O)n2-c2ccc(C(N)=O)cc2C)cc1
In: Thanks in advance: please rank these 3 entries by inhibition at 10 µM, highest to lowest. Answer by listing the labels in the order asked for.
Out: B, C, A
(B: 91%, C: 27%, A: 18%)

----------
target: CYP2C9 (Homo sapiens); assay: Inhibition of CYP2C9 at 10 uM; type: ADME
Sequence (P11712 whole entry): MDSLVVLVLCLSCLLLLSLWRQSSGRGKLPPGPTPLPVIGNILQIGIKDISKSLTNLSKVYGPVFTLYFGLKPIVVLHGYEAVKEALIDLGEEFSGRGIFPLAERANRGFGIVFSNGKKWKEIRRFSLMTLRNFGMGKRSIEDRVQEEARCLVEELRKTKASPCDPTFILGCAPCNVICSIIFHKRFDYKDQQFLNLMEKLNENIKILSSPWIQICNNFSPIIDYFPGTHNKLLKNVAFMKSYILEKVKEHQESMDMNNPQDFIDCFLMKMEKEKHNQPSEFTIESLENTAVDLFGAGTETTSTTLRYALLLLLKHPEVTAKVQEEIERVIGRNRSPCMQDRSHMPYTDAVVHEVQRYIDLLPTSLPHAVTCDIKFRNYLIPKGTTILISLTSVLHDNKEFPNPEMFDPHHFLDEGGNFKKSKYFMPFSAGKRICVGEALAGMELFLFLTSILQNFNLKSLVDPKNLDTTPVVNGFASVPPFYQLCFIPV
READOUT LABEL: inhibition at 10 µM (%)

CCc1nccn1-c1ccc(-c2ccc(CCC(=O)O)n2-c2ccc(C(N)=O)cc2C)cc1    15
Cc1cc(C(N)=O)ccc1-n1c(CCC(=O)O)ccc1-c1ccc(-n2ccnc2C)cc1    20
Cc1cc(C(N)=O)ccc1-n1c(CCC(=O)O)ccc1-c1cc(-n2ccnc2C)cs1    13

1 = Cc1cc(C(N)=O)ccc1-n1c(CCC(=O)O)ccc1-c1ccc(-n2ccnc2)s1
2 = Cc1cc(C(N)=O)ccc1-n1c(CCC(=O)O)ccc1-c1ccc(-n2ccnc2C)s1
In: Select the item with the higher value of inhibition at 10 µM from the options 1 and 2 listed. Please reply using the label of the selected record.
Out: 1

----------
molecular target: CYP1A2 (Homo sapiens, UniProt P05177); assay: Inhibition of CYP1A2 at 10 uM; type: ADME
Sequence (P05177 whole entry): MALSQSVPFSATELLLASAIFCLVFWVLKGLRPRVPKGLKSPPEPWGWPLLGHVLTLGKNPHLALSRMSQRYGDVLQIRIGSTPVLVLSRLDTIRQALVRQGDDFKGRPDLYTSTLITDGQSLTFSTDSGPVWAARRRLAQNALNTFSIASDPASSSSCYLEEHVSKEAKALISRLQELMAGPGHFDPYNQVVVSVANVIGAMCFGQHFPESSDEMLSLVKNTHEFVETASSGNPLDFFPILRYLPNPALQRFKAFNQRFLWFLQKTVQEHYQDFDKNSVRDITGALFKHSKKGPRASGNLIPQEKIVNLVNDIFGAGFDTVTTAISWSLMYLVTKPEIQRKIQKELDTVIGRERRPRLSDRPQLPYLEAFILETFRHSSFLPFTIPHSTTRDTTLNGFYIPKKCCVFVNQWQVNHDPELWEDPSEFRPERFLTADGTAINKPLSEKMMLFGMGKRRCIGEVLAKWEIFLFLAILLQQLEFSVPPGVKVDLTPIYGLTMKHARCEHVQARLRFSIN
READOUT LABEL: inhibition at 10 µM (%)

Worked cases, inhibition at 10 µM given:
Cc1cc(C(N)=O)ccc1-n1c(CCC(=O)O)ccc1-c1cc(-n2ccnc2C)cs1    -11
Cc1cc(C(N)=O)ccc1-n1c(CCC(=O)O)ccc1-c1ccc(-n2ccnc2C)s1    -8

a = Cc1cc(C(N)=O)ccc1-n1c(CCC(=O)O)ccc1-c1ccc(-n2ccnc2C)cc1
b = CCc1nccn1-c1ccc(-c2ccc(CCC(=O)O)n2-c2ccc(C(N)=O)cc2C)cc1
c = Cc1cc(C(N)=O)ccc1-n1c(CCC(=O)O)ccc1-c1ccc(-n2ccnc2)s1
In: Thanks in advance: please rank these 3 entries by inhibition at 10 µM, highest to lowest. Answer by listing the labels in the order asked for.
Out: c, a, b

----------
target: CYP2D6 (Homo sapiens, UniProt P10635); test: Inhibition of CYP2D6 at 10 uM; format: ADME
Sequence (P10635 whole entry): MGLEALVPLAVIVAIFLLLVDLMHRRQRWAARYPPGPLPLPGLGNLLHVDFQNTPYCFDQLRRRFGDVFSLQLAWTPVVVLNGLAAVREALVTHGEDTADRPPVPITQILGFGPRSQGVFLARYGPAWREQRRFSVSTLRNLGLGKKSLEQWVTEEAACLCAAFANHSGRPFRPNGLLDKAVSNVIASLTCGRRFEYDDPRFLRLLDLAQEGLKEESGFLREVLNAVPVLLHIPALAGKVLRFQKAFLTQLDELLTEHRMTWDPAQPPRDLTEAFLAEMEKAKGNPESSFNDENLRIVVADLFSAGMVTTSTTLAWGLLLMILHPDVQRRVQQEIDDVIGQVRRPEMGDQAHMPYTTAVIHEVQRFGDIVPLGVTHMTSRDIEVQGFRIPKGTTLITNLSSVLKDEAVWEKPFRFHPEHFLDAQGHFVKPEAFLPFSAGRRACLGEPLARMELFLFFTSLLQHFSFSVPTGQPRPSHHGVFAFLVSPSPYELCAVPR
READOUT LABEL: inhibition at 10 µM (%)

Cc1cc(C(N)=O)ccc1-n1c(CCC(=O)O)ccc1-c1ccc(-n2ccnc2C)cc1    11
Cc1cc(C(N)=O)ccc1-n1c(CCC(=O)O)ccc1-c1ccc(-n2ccnc2C)s1    10

P = Cc1cc(C(N)=O)ccc1-n1c(CCC(=O)O)ccc1-c1ccc(-n2ccnc2)s1
Q = CCc1nccn1-c1ccc(-c2ccc(CCC(=O)O)n2-c2ccc(C(N)=O)cc2C)cc1
R = Cc1cc(C(N)=O)ccc1-n1c(CCC(=O)O)ccc1-c1cc(-n2ccnc2C)cs1
In: Thanks in advance: please rank these 3 entries by inhibition at 10 µM, highest to lowest. Answer by listing the labels in the order asked for.
Out: P, Q, R

----------
target: CYP2C19 (Homo sapiens); test: Inhibition of CYP2C19 at 10 uM; assay type: ADME
Sequence (P33261 whole entry): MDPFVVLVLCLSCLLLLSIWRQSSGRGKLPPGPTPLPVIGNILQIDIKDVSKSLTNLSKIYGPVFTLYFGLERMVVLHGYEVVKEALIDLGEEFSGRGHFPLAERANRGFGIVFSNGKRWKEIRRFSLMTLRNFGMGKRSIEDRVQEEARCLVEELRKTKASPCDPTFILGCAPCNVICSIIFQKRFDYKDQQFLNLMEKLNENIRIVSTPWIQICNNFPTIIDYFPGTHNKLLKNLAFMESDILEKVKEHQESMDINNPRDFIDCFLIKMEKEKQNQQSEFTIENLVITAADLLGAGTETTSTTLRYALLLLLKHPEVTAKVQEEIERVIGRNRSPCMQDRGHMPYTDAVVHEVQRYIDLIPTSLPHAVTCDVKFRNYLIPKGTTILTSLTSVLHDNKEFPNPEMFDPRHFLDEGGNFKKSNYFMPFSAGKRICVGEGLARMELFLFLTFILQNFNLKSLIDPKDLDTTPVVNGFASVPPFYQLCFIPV
READOUT LABEL: inhibition at 10 µM (%)

CCc1nccn1-c1ccc(-c2ccc(CCC(=O)O)n2-c2ccc(C(N)=O)cc2C)cc1    25
Cc1cc(C(N)=O)ccc1-n1c(CCC(=O)O)ccc1-c1ccc(-n2ccnc2C)cc1    55
Cc1cc(C(N)=O)ccc1-n1c(CCC(=O)O)ccc1-c1ccc(-n2ccnc2)s1    83

1 = Cc1cc(C(N)=O)ccc1-n1c(CCC(=O)O)ccc1-c1cc(-n2ccnc2C)cs1
2 = Cc1cc(C(N)=O)ccc1-n1c(CCC(=O)O)ccc1-c1ccc(-n2ccnc2C)s1
In: Select the item with the higher value of inhibition at 10 µM from the options 1 and 2 listed. Please reply using the label of the selected record.
Out: 2

----------
target: Cytochrome P450 2C19 (Homo sapiens)
READOUT LABEL: IC50 (nM)
Provide only the numeric value, understood in nM.

In: Reported IC50, compound Cc1cc(C(N)=O)ccc1-n1c(CCC(=O)O)ccc1-c1ccc(-n2ccnc2)cc1 [N6022] : ____
Out: 770
